System: giant foxtail (Setaria faberii)
protocolText: Test A preemergence
Assay type: in vivo
experimentalConditions: Setaria faberi, pre-emergence, 240 h, 125 g ai/ha, 0 to 100 scale, read-out: Plant response rating, Foxtail, Giant
The entries below are paired with their reported pest or weed control at 125 g/ha.
Could you give me the number in %? Just the number is fine.

molecule	unitsSymbol	pest or weed control at 125 g/ha
N#Cc1cccc(Oc2ncc(Cl)cn2)c1Oc1ncc(Cl)cn1 [Compound 3]	%	100
N#Cc1cccc(Oc2ncc(F)cn2)c1Oc1ncc(F)cn1 [Compound 2]	%	100
N#Cc1cccc(Oc2ncc(Br)cn2)c1Oc1ccc(Cl)cn1 [Compound 11]	%	100

Lab book: pest or weed control at 125 g/ha of N#Cc1cccc(Oc2ncc(Br)cn2)c1Oc1ncc(Br)cn1 [Compound 1] noted as 90

---

Test system: ragweed (common ragweed, Ambrosia elatior)
protocolText: Test C postemergence
Format: in vivo
experimentalConditions: Ambrosia artemisiifolia, post-emergence, 336 h; Postemergence, 62 g ai/ha, scale 0 to 100; read-out: Plant response rating, Ragweed
pest or weed control at 62 g/ha values for the molecules below.
Hi! Could you send only the number? It should be in %, unit omitted.

Would you please look over these solved cases?
molecule	testTarget	pest or weed control at 62 g/ha / %
Fc1cnc(Oc2c(Br)cccc2Oc2ncc(Cl)cn2)nc1 [Compound 22]	ragweed (common ragweed, Ambrosia elatior)	35
N#Cc1cccc(Oc2ncc(Cl)cn2)c1Oc1ccc(Cl)cc1 [Compound 36]	ragweed (common ragweed, Ambrosia elatior)	40
Fc1cccc(Oc2ncc(Cl)cn2)c1Oc1ncc(Br)cn1 [Compound 27]	ragweed (common ragweed, Ambrosia elatior)	35
Fc1cccc(Oc2ncc(Cl)cn2)c1Oc1ncc(C(F)(F)F)cn1 [Compound 43]	ragweed (common ragweed, Ambrosia elatior)	65
Fc1cccc(Oc2ncc(Cl)cn2)c1Oc1ncc(Cl)cn1 [Compound 21]	ragweed (common ragweed, Ambrosia elatior)	60

Please look at the following molecule next.
Observed pest or weed control at 62 g/ha, ragweed (common ragweed, Ambrosia elatior), Fc1cccc(Oc2ncc(Cl)cn2)c1Oc1ccc(Cl)nc1 [Compound 20] : 20

---

Test system: velvetleaf (Abutilon theophrasti)
protocolText: Test C preemergence
Type: in vivo
experimentalConditions: Abutilon theophrasti, pre-emergence; 62 g ai/ha, preemergence; scale 0 to 100; read-out: Plant response rating, Velvetleaf
experimentalReadout: pest or weed control at 62 g/ha (%)
# output: bare number, implied unit %

Illustrative cases are given below, each with its answer.
compound	pest or weed control at 62 g/ha / %
Clc1cnc(Oc2cccc(Cl)c2Oc2ncc(Br)cn2)nc1 [Compound 17]	95
Fc1cccc(Oc2ncc(Cl)cn2)c1Oc1ncc(Br)cn1 [Compound 27]	95

The value of pest or weed control at 62 g/ha measured for the compound N#Cc1cccc(Oc2ncc(Cl)cn2)c1Oc1ncc(C(F)(F)F)cn1 [Compound 38] turned out to be 98

Entry N#Cc1cccc(Oc2ncc(Br)cn2)c1Oc1ncc(Cl)cn1 [Compound 5] ; pest or weed control at 62 g/ha = 100

Item: Fc1cnc(Oc2c(F)ccc(F)c2Oc2ncc(F)cn2)nc1 [Compound 29] | pest or weed control at 62 g/ha: 90

So, N#Cc1cccc(Oc2ncc(Cl)cn2)c1Oc1ccc(Br)cn1 [Compound 15] ? Its pest or weed control at 62 g/ha was 90

---

Tested on: pigweed (Amaranthus retroflexus)
protocolText: Test C postemergence
Type: in vivo
experimentalConditions: Amaranthus retroflexus, post-emergence, 336 h; Postemergence, 62 g ai/ha, scale 0 to 100; read-out: Plant response rating, Pigweed
experimentalReadout: pest or weed control at 62 g/ha
Could you give the number and then its unit, please?

# count of solved cases: 4
smilesText	testTarget	valueReported
Fc1cccc(Oc2ncc(Cl)cn2)c1Oc1ncc(C(F)(F)F)cn1	pigweed (Amaranthus retroflexus)	90%
N#Cc1cccc(Oc2ncc(Cl)cn2)c1Oc1ncc(Br)cn1	pigweed (Amaranthus retroflexus)	80%
N#Cc1cccc(Oc2ncc(Cl)cn2)c1Oc1ccc(Cl)cc1	pigweed (Amaranthus retroflexus)	98%
Fc1cnc(Oc2c(F)cccc2Oc2ncc(Cl)cn2)nc1	pigweed (Amaranthus retroflexus)	80%

Alright, here's another compound for you.
Reported pest or weed control at 62 g/ha (pigweed (Amaranthus retroflexus)) for entry N#Cc1cccc(Oc2ncc(Cl)cn2)c1Oc1ccc(Cl)cn1 is 85%
